assay: photoluminescence quantum yield (fraction); solvent given as SMILES; conditions: in CS(C)=O
Values of photoluminescence quantum yield greater than or equal to 0.06 map to 1.0; values below map to 0.0.

Worked examples follow.
1. COC(=O)C(Cc1ccc2oc(-c3ccc(N(C)C)cc3)nc2c1)NC(=O)OC(C)(C)C (stereo not given) : 1.0
2. CC1=CC(c2ccc(N(C)C)cc2)=[N+]2C1=Nc1c(C)cc(-c3ccc(N(C)C)cc3)n1[B-]2(F)F : 0.0
3. c1cc2c3c(cccc3c1)NC(c1ccc3ccc4cccc5ccc1c3c45)N2 : 1.0

Lab note: next compound to report on.
In plain terms: is recorded photoluminescence quantum yield at least 0.06 for c1ccc(-c2nc3c(c4c2-c2ccccc2CC4)-c2ccccc2CC3)cc1 ?
0.0

###

assay: photoluminescence quantum yield (fraction); solvent given as SMILES; conditions: in ClCCl
In plain terms, low photoluminescence quantum yield, meaning strictly below 0.7, gives y, and everything else gives n.

Worked examples follow.
1. COc1ccc2cc(/C=C/C3=[O+][B-](F)(F)OC(/C=C/c4ccc5cc(OC)ccc5c4)=C3c3ccccc3)ccc2c1 : y
2. CCOC(=O)/C=C/C1=[N+]2C(=C(c3c(C)cc(C)cc3C)c3ccc(/C=C/C(=O)OCC)n3[B-]2(F)F)C=C1 : n
3. CC1=C(C#Cc2ccc([Si](c3ccccc3)(c3ccccc3)c3ccccc3)cc2)C(C)=[N+]2C1=C(c1ccccc1)c1c(C)c(C#Cc3ccc([Si](c4ccccc4)(c4ccccc4)c4ccccc4)cc3)c(C)n1[B-]2(F)F : y

Lab note: next compound to report on.
Threshold test, photoluminescence quantum yield < 0.7: CC(C)[Si]1(C(C)C)c2cc(C=O)ccc2-c2ccc(N(c3ccccc3)c3ccccc3)cc21
n

###

assay: photoluminescence quantum yield (fraction); solvent given as SMILES; details: in Cc1ccccc1
measured.endpoint: photoluminescence quantum yield
Just the number.

1) Cc1nnc(-c2cc(-n3c4ccccc4c4ccccc43)c(-n3c4ccccc4c4ccccc43)cc2-c2nnc(C)o2)o1 : 0.287
2) N#Cc1ccccc1N1c2ccccc2C(c2ccccc2)(c2ccccc2)c2ccccc21 : 0.33
3) CCCCCCCCCCOc1ccc(C#Cc2ccc(C#Cc3ccc(OCCCCCCCCCC)c(OCCCCCCCCCC)c3)c3nc4c5ccccc5c5ccccc5c4nc23)cc1OCCCCCCCCCC : 0.24
4) Cc1cccc(C2=CC3=C(c4c(C)cc(C)cc4C)c4cc(-c5cccc(C)c5)c(-c5cccc(C)c5)n4[B-](F)(F)[N+]3=C2c2cccc(C)c2)c1 : 0.44
5) CN(C)c1ccc(C2=Nc3sc4c(F)c(F)c(F)c(F)c4[n+]3[B-](F)(F)O2)cc1 : 0.65
6) CCCCCCCCN1c2ccccc2Sc2cc(/C=C/c3ccc(N(c4ccc(/C=C/c5ccc6c(c5)Sc5ccccc5N6CCCCCCCC)cc4)c4ccc(/C=C/c5ccc(/C=C/c6ccc(N(c7ccc(/C=C/c8ccc9c(c8)Sc8ccccc8N9CCCCCCCC)cc7)c7ccc(/C=C/c8ccc9c(c8)Sc8ccccc8N9CCCCCCCC)cc7)cc6)c6nsnc56)cc4)cc3)ccc21 : 0.278
7) COc1cc2c(cc1/C=C/C1=CC(=C(C#N)C#N)CC(C)(C)C1)c1ccccc1n2C : 0.007
8) Cc1cc(C)c(B(c2ccc(N3c4ccccc4Oc4ccccc43)cc2)c2c(C)cc(C)cc2C)c(C)c1 : 0.87

According to the records, this molecule O=C1C(=c2c(=O)c3c4ccccc4cc4cc5ccccc5c2c43)C(=O)c2ccccc21 displays photoluminescence quantum yield of 0.268

According to the records, this molecule Cc1ccc(-c2c3ccc([nH]3)c3nc(c(-c4ccc([N+](=O)[O-])cc4)c4ccc([nH]4)c4ccc([nH]4)c(-c4ccc(C)cc4)c4ccc2o4)C=C3)cc1 displays photoluminescence quantum yield of 0.083

According to the records, this molecule CC1=[N+]2C(=C(c3ccc(N4CCCCC4)cc3)c3ccc(C)n3[B-]2(F)F)C=C1 displays photoluminescence quantum yield of 0.13

###

experiment: photoluminescence quantum yield (fraction); solvent given as SMILES; conditions: in C1CCCCC1
Values of photoluminescence quantum yield greater than or equal to 0.4 map to label 1; values below map to label 0.

Worked examples follow.
1) CC(C)(C)C#Cc1ccc2c3cccc4cccc(c5cccc1c52)c43 : label 1
2) O=P1(c2ccccc2)C(c2cc(C(F)(F)F)cc(C(F)(F)F)c2)=Cc2c3ccc4cccc5ccc(c6cc(-c7ccc(N(c8ccccc8)c8ccccc8)cc7)n1c26)c3c45 (centres undefined) : label 1
3) c1ccc(-c2cc3cccc4cc(-c5ccccc5)c5cc(-c6cc7[b-]8c(c6)c(-c6ccccc6)cc6cccc(cc7-c7ccccc7)[n+]86)cc2[b-]5[n+]34)cc1 : label 0
4) N#Cc1nc2c(nc1C#N)C1c3ccc(N(c4ccccc4)c4ccccc4)cc3C2c2ccc(N(c3ccccc3)c3ccccc3)cc21 : label 1
5) COc1ccc2nc3c(nc2c1)c(-c1ccccc1)nn3C : label 0

In plain terms: is recorded photoluminescence quantum yield at least 0.4 for CC(C)(C)c1ccc2oc(-c3ccc(-c4nc5cc(C(C)(C)C)ccc5o4)s3)nc2c1 ?
label 1

In plain terms: is recorded photoluminescence quantum yield at least 0.4 for COc1ccc(C2=C(c3ccc(OC)cc3)C(C)(C)c3cc(OC)ccc32)cc1 ?
label 0

In plain terms: is recorded photoluminescence quantum yield at least 0.4 for CC(C)[Si]1(C(C)C)c2cc(C=O)ccc2-c2ccc(N(c3ccccc3)c3ccccc3)cc21 ?
label 1

In plain terms: is recorded photoluminescence quantum yield at least 0.4 for CC1=[N+]2C(=C(c3ccc(N4CCOCC4)cc3)c3ccc(C)n3[B-]2(F)F)C=C1 ?
label 0

###

assay: photoluminescence quantum yield (fraction); solvent given as SMILES; conditions: in O
In plain terms, low photoluminescence quantum yield, meaning strictly below 0.1, gives YES, and everything else gives NO.

Threshold test, photoluminescence quantum yield < 0.1: O=[N+]([O-])c1ccc(F)cc1C1CC(c2cccc3ccccc23)=NN1c1ccccc1 (stereo not given)
NO

Threshold test, photoluminescence quantum yield < 0.1: N#Cc1ccc(N)c2nonc12
YES

###

experiment: photoluminescence quantum yield (fraction); solvent given as SMILES; conditions: in CC#N
This listing pairs compounds with measured photoluminescence quantum yield.

1) Cc1ccc(C(=O)NN2C3=C(CC4=C2CCCC4=O)C(=O)CCC3)cc1 : 0.55
2) Cc1ccc(OCc2cc(=O)oc3c2ccc2ccccc23)cc1 : 0.0506
3) COc1ccc(/C=C/c2ccc(-c3ccc(C)cn3)nc2)cc1 : 0.28

According to the records, this compound Cc1cccc(C)c1Nc1ccc(/C=C/c2ccccc2)cc1 displays photoluminescence quantum yield of 0.04

According to the records, this compound CCOC(=O)CN(CC(=O)OCC)c1ccc(-c2cc(-c3cccnc3)nc(-c3cccnc3)c2)cc1 displays photoluminescence quantum yield of 0.57

According to the records, this compound O=c1c2ccccc2nc2n1[B-](F)(F)[n+]1ccccc1-2 displays photoluminescence quantum yield of 0.78

According to the records, this compound NS(=O)(=O)c1ccc(N2N=C(c3ccc(O)cc3)CC2c2ccc(Br)cc2)cc1 (stereo unspecified) displays photoluminescence quantum yield of 0.65

According to the records, this compound CCCCN(CCCC)c1ccc(/C=C/c2ccc3nc(/C=C/c4ccc(N(C)C)cc4)c(=O)n(CCC)c3c2)cc1 displays photoluminescence quantum yield of 0.04

###

This listing pairs molecules with measured photoluminescence quantum yield.
experiment: photoluminescence quantum yield (fraction); solvent given as SMILES; details: in CS(C)=O
Just the number.

1) CCCCCCCCN1c2ccc(C#Cc3ccc(C(F)(F)F)cc3)cc2Sc2cc(C=O)ccc21 : 0.72

According to the records, this molecule Oc1ccc2ccccc2c1C1Nc2cccc3cccc(c23)N1 displays photoluminescence quantum yield of 0.14

According to the records, this molecule CCN(CC)c1ccc2cc(-c3csc(N)c3C#N)c(=O)oc2c1 displays photoluminescence quantum yield of 0.04

According to the records, this molecule CN1/C(=C/C=C(/C=C/C2=[N+](C)c3ccccc3C2(C)C)c2cccc(C(F)(F)F)c2)C(C)(C)c2ccccc21 displays photoluminescence quantum yield of 0.16

According to the records, this molecule Cc1ccccc1/C(C#N)=C/c1ccc(N(C)C)cc1 displays photoluminescence quantum yield of 0.011

According to the records, this molecule O=C1c2ccc3c4ccc5c6c(ccc(c7ccc(c2c37)C(=O)N1c1ccncc1)c64)C(=O)N(c1ccncc1)C5=O displays photoluminescence quantum yield of 0.057

###

experiment: photoluminescence quantum yield (fraction); solvent given as SMILES; settings: in C1CCOC1
This listing pairs compounds with measured photoluminescence quantum yield.
Just the number.

Examples from the recorded data:
1. CN(C)CCN(Cc1c2ccccc2cc2ccccc12)c1ccc([N+](=O)[O-])cc1 : 0.0015
2. COc1ccc(-c2cc3c(o2)=CC2=C(C(F)(F)F)c4cc5oc(-c6ccc(OC)cc6)cc5n4[B-](F)(F)[N+]=32)cc1 : 0.49
3. CC(C)(C)c1cc2c(c(C(C)(C)C)c1)O[B-]1(c3ccc([B-]45OC(c6ccccc6)=N[N+]4=Cc4cc(C(C)(C)C)cc(C(C)(C)C)c4O5)cc3)OC(c3ccccc3)=N[N+]1=C2 (centres undefined) : 0.001

Now consider the entry below.
According to the records, this compound Cc1ccc(-c2c3ccc([nH]3)c3nc(c(-c4ccc([N+](=O)[O-])cc4)c4ccc([nH]4)c4ccc([nH]4)c(-c4ccc(C)cc4)c4ccc2o4)C=C3)cc1 displays photoluminescence quantum yield of 0.018
